Every entry's value here was drawn from patent US20240158475A1.

biological target: DN-III quality control recombinant protein (produced by Fapon Biotech InC.) (dengue virus); experiment: BLI, AMC sensor, antibody captured
pKd: −log10 of the molar value.

- binder: "Mutation 1-25 (antibody, V domains shown) VH: EVQLQQSGTELVRPGALVKLSCKASGFNIKDYYIHWVKQRPRQGLEWIGWIDPENGKTIYDPKFQDKASITSDTSTNTAYLQLRSLTSEDTAVYYCVTAYFRFVYWGQGTLVTVSA VL: QIVLTQSPAIMSAFPGERVTMTCSASSSVRYMYWHQQKPGSSPRLLIYDTSNLASGVPVRFSGSGSGTSYSLTISRDEAMDAATYYCQQWSSTPRTFGGGTKLEIKR"
  pKd: 8.96
- binder: "Mutation 1-36 (antibody, V domains shown) VH: EVQLQQSGTELVRPGALVKLSCKASGFNIKDYYVHWVKQRPRQGLEWIGWIDPENGKTIYDPKFQDKASITSDTSTNTAYLQLRSLTSEDTAVYYCVTAYFRFVYWGQGTLVTVSA VL: QIVLTQSPAIMSAFPGERVTMTCSASSSVRYMYWHQQKPGSSPRLLIYDTSNLASGVPVRFSGSGSGTSYSLTISRDEAMDAATYYCQQWSSFPRTFGGGTKLEIKR"
  pKd: 9.47
- binder: "WT 1-7 (antibody, V domains shown) VH: EVQLQQSGTELVRPGALVKLSCKASGFNIKEYYVHWVKQRPRQGLEWIGWIDPDNGKTIYDPKVQDKASITSDTSTNTAYLQLRSLTSEDTAVYYCVSAYVRFVYWGQGTLVTVSA VL: QIVLTQSPAIMSAFPGERVTMTCSASTSVKYMYWHQQKPGSSPRLLIYETSNVASGFPVRFSGSGSGTSYSLTISRDEAMDAATYYCQQQSSTPRTFGGGTKLEIKR"
  pKd: 8.43
